Data credit: ChEMBL document CHEMBL4138205

System: Human immunodeficiency virus 1
Assay: Antiviral activity against VSV-G pseudotyped HIV1 infected in human MT2 cells pretreated for 15 mins followed by viral infection measured after 48 hrs by luciferase reporter gene assay
Assay type: functional, organism-based
Conditions: Human immunodeficiency virus 1, MT2
quantity: IC50 (nM)
// return numeric value only (unit: nM, not printed)

I have this compound here, Cc1cccc2c1ccc1c3c(c4ocnc4c12)[C@@H](C)CO3 , and I need its recorded IC50.
30
